# methodSummary: yeast display, Sf9 membrane polyspecificity reagent, FACS + sequencing; frameworks hold sequencing errors
valueKind: polyreactivity (PSR sort gate)

# count of solved cases: 5
entrysequence=QVQLVESGGGLVQAGGSLRLSCAASGSIFGIYAMGWYRQAPGKERELVATITGRGGSTYYADSVKGRFTISRDNAKNTVYLQMNSLKPEDTAVYYCNAGGRSARYFWGGYWGQGTQVTVSS result="high polyreactivity"
entrysequence=QVQLVESGGGLVQAGGSLRLSCAASGSIFTQYAMGWYRQAPGKEREFVARITGSGGRTYYADSVKGRFTISRDNAKNTVYLQMNSLKPEDTAVYYCAARDVRPYYVKPPVRYYYWGQGTQVTVSS result="high polyreactivity"
entrysequence=QVKLLESGGGLVQAGGSLRLTCAASGSTFPPYAMGWYRQAPGTESELVAAISYRDTGTYYADSVKGRFTISRDNAKYTVYLQMNSLKPEDTAVYYCATLGYFSASRTDYDYWGQGTQVTVSS result="low polyreactivity"
entrysequence=QVQLVESGGGLVQAGGSLRLSCAASGSTFSRYTMGWYRQAPGKERELVAAIRRSGASTYYADSVKGRFTISRDNAKNTVYLQMNSLKPEDTAVYYCAVGRYRYGYWGQGTQVTVSS result="high polyreactivity"
entrysequence=QVQLVESGGGLVQAGGSLRLSCAASGTFAGNAMGWYRQAPGKERELVAAITTGGRTYYADSVKGRFTISRDNAKNTVYLQMNSLKPEDTAVYYCAADRIRDLEFDYWGQGTKVTVSS result="low polyreactivity"

INPUT: Request the reported polyreactivity (PSR sort gate) associated with QVQLVESGGGLVQAGGSLRLSCAASGSTFYIYAMGWYRQAPGKEREFFAAITWSGGRTFYADSVKGRFTISRDNAKNTVYFQMNSLKPEDTAVYYCAARFWSDKTGSRYYYWGQGTQVTVSS
OUTPUT: high polyreactivity

INPUT: Request the reported polyreactivity (PSR sort gate) associated with QVQLVESGGGLVQAGGSLRLSCAASGRTFYPYAMGWYRQAPGKERELVATITWSGTTTYYADSVKGRFTISRDNAKNTVYLQMNSLKPEDTAVYYCAADVWEVVTPYGTIDDDYWGQGTQVTVSS
OUTPUT: high polyreactivity

---

# methodSummary: yeast display, Sf9 membrane polyspecificity reagent, FACS + sequencing; frameworks hold sequencing errors
valueKind: polyreactivity (PSR sort gate)

# count of solved cases: 5
entrysequence=QVQLVESGGGLVQAGGSLRLSCAASGSIFYINDMGWYRQAPGKERELVAAISWSGGTTYYADSVKVRFTISRDNAKNTVYLQMNSLKPEDTAVYYCATDYFFLFPWGLSDYWGQGTQVTVSS result="low polyreactivity"
entrysequence=QVQLVESCGALVQAGGSLLLSCAASGRTFVVNDMGWYRHAPWKERELVATINVSGGSTSYEDSVKGRFTISRDNGKYTVYLQMTSLKPEDTAVYYCNVDTYVEYPHDYWGQGTQVTVSS result="low polyreactivity"
entrysequence=QVQLVESGGGLDHAGGSLRLSCAASGFIFTPNAMGMYRQAPAKEREWVAAITSGGVTYYADSVKGRFTISRDNAKNTVYIQMNSLKPEGTAVYYCKKNHTGTVRDSIYGYWGQGNQVTVSS result="high polyreactivity"
entrysequence=QVQLVESGGGLVQAGGSLRLSCAASGFIFGVYAMGWYRQAPGKEREFVAAISWTGGSTSYADSVKGRFTISRDNAKNTVYLQMNSLKPEDTAVYYCARRRSYKRRFDYWGQGTQVTVSS result="low polyreactivity"
entrysequence=QVQLVESGGGLVQAGGSLRLSCAASGITFVRYAMGWYRQAPGKERELVAAISSGGSTHYADSVKGRFTISRDNAKNTVYLQMNSLKPEDTAVYYCAAQWTESSLYRFGYWGQGTQVTVSS result="high polyreactivity"

INPUT: Request the reported polyreactivity (PSR sort gate) associated with QVQLVESGGGLVQAGGSLRLSCAASGSTFNSYAMGWNRQAPGKERELVDRILWSGSTYYADSVKGRFTISRDNAKNTVYLQMNSLKPEDTAVYYFAAKRGYHIGDYWGQCTQVTVSS
OUTPUT: high polyreactivity

INPUT: Request the reported polyreactivity (PSR sort gate) associated with QVQLVESGGGLVQAGGSLRLSSAASGGIFSSYAMGWYRQAPGKERELVAAISGSGGRTYYADSVKGRFTISRDNAKNTVYLQMNSLKPEDTSVYYCAAYPVNRVDYRYDYWGQGTQVTVSS
OUTPUT: high polyreactivity

---

# methodSummary: yeast display, Sf9 membrane polyspecificity reagent, FACS + sequencing; frameworks hold sequencing errors
valueKind: polyreactivity (PSR sort gate)

# count of solved cases: 5
entrysequence=QVQLVESGGGLVQAGGSLRLSCAASGRTFKYYTMGWYRQAPGKERELVATISSSATSTYYADSVKGRFTISRDNAKNTVYLQMNSLKPEDTAVYYCAVERDYGWPIYIRWHFDYWGQGTQVTVSS valuekind="polyreactivity (PSR sort gate)" result="low polyreactivity"
entrysequence=QVQLVESGGGLVQAGGSLRLSCAPSGRTFDQYAMGWYRQAPGKERELVADITWSGGTTRYADSVKGRFTISRDHAKNTVYLQMNSLKPEDTAVYYCAVEVTWGYNYWGQVTQVTVSS valuekind="polyreactivity (PSR sort gate)" result="low polyreactivity"
entrysequence=QVQLVESGGGLVQAGGSLRLSCAASGSIFQSNAMGWYRQPPGKERELVAAISSSGVRTYYADSVKGRFTISRDNAKNTVYLQMNSLKPEDTAVYFCATGWYYAGGPTYEYYYWGQGTQVTVSS valuekind="polyreactivity (PSR sort gate)" result="low polyreactivity"
entrysequence=QVQLVESGGGLVQAGGSLRLSCAASGRIFSRNTMGWYRQAPGKERELVATITSAGSTTYADSVKGRFTISRDNAKNTVYLQMNRLKPEDTAVYYCAARSWKRRVGRDYWGQGTQVTVSS valuekind="polyreactivity (PSR sort gate)" result="high polyreactivity"
entrysequence=QVQLVESGGGLVQAGGSLRLSCAASGFIFLHYAMGWYRKAPGKERELVAGIDSSVDSTFYADSVKGRFTISRDNAKNTVYLQMNSLKPEDTAVYYCAKDPDLDYYLYYYWGQGTQVTVSS valuekind="polyreactivity (PSR sort gate)" result="low polyreactivity"

INPUT: Request the reported polyreactivity (PSR sort gate) associated with QVQLVESGGGLVQAGGSLRLSCAASGRILGAYAMGWYRQAPGKERELVASISSGGRTYYADSVKGRFTISRDNAKNTVYLQMNSLKPEDTAVYYCAAYVYTSFLYYYWGQGTQVTVSS
OUTPUT: high polyreactivity

INPUT: Request the reported polyreactivity (PSR sort gate) associated with QVQLVESGGGLVQAGGSLRLSCAASGITFYDYTMVWYRQAPGKESELVAVITSAGSTYYADSVKGRFTISRDNAKNTVYLQMNSLKPEDTAVYYCAAVIVSRGRKYRLDYWGQGTQVTVSS
OUTPUT: high polyreactivity

INPUT: Request the reported polyreactivity (PSR sort gate) associated with QVQLVESGGGLVQAGGSLRLSCAASGSIMSYYAMGWYRQAPGQVREFVAAISSGGGTYYADSVKGRFTISRDNAKNTVYLQMNSLNAEDTAVFYCNADHASSIQFEYWGQGTQVTVSS
OUTPUT: low polyreactivity

---

# methodSummary: yeast display, Sf9 membrane polyspecificity reagent, FACS + sequencing; frameworks hold sequencing errors
valueKind: polyreactivity (PSR sort gate)

entrysequence=QVQLVESGGGLVQAGGSLRLSCAASGFTLGSNAMGWYRQAPGKERELVAAISKSGGSTYYADSVKGRFTISRDNAKNTVYLQMNSLKPEDTAVYYCAARYLYQGYRYDYWGQGTQVTVSS valuekind="polyreactivity (PSR sort gate)" result="high polyreactivity"
entrysequence=QVQLVESGGGLVHAGGSLRLSCAASRSTFALNAMGWYRPAPGKERELVAAISRRGGSTYYADSVKGRFTISRDNAKNSVYLQMNSLKPEDTAVYYCAARYKRFTRFDYWGQGTQVTVSS valuekind="polyreactivity (PSR sort gate)" result="high polyreactivity"
entrysequence=QVQLVESGGGLVQAGGSLRLSCAASGSISLHYAMGWYRQAPGKERELVAAISKSGGSTYYADSVKGRFTISRDNAKNTVYLQMNSLKPEDTAVYYCAADTYRSFGYNYWGQGTQVTVSS valuekind="polyreactivity (PSR sort gate)" result="high polyreactivity"

---

# methodSummary: yeast display, Sf9 membrane polyspecificity reagent, FACS + sequencing; frameworks hold sequencing errors
valueKind: polyreactivity (PSR sort gate)

# count of solved cases: 5
entrysequence=QVQLLESGGGLVQAGGSLRLSCAASGSISVAYAMGWYRQAPGKERELVATIRSGDSTYYADSVKGRFTISRDNAKNTVYLQMNSLKPEDTAVYYCNADATDSYPEKDEHDSWGQGTQVTVSS valuekind="polyreactivity (PSR sort gate)" result="low polyreactivity"
entrysequence=QVQLVESGGGIVQAGGSLRLSCAASGGTFYYYAMGWYRQAPGKERELVATISYSGASTYYADSVKGRFTISRDNAKNTVYLQMNSLKPEDTAVYYCKARPYNHRYRAWMDYWGQGTQVTVSS valuekind="polyreactivity (PSR sort gate)" result="high polyreactivity"
entrysequence=QVQLVESGGGLVQAGGSLRLSCAASGRIFNPNVMGWYRQAPGKERELVAAISWSGDTTYYADSVKWRFTISRDNAKNTVYLQMNSLKPEDTEVYYCATESDGYAYENYEYWGQGTQVTVSS valuekind="polyreactivity (PSR sort gate)" result="high polyreactivity"
entrysequence=QVHLVESGGGLVQAGGSLRLSCAASGITFNIYTLGWYRQAPGKEREFVATISSSGGGTYYADSVKGRFTISRDNSKNTVYFQMNSLKPEDTAVYYCARYGIGADGYDYWGQGTQVTVSS valuekind="polyreactivity (PSR sort gate)" result="low polyreactivity"
entrysequence=QVQLVESGGGLVQAGGSLRLSCASSGRIFPWNTMGWYRQAPGKERELVAGINNGDRTYYADSVKGRFTISRDNAKNRVYLQMNSLKPDETAVYYCARDDNPIYSGVTYDSWGQGTQVSVSS valuekind="polyreactivity (PSR sort gate)" result="low polyreactivity"

INPUT: Request the reported polyreactivity (PSR sort gate) associated with QVQLVESGGGLVQAGGSLRLSCAASGGTFGRYAMGWYRQAPGKERELVAAITYGGGSTYYADSVKGRFTISRDNAKNTVYLQMNSLKPEDTAVYYCNKYASLRYWGQGTQVTVSS
OUTPUT: high polyreactivity

INPUT: Request the reported polyreactivity (PSR sort gate) associated with QVQLVESGGGLVQAGGSLRLSCAASGFTFRVYAMGGYRPAPGKERELVAAITSGSSTTYADSVKGRFTISRDNAKNTVYLQMNSLKPEDTAVYYCNARRRGRVTGSYGYWGQGTQVTVSS
OUTPUT: high polyreactivity

INPUT: Request the reported polyreactivity (PSR sort gate) associated with QVQHVESGGGIVQAGGSLRISCSASGRTLGYYAMGLYRQAPGKETEMVAASSRSGGSTYYADSVQGRFTNSRDNAKNTVYVEMQSLNPEDTAVYDCAATYGPSRYRYDYWGQGTQVTVSS
OUTPUT: high polyreactivity

INPUT: Request the reported polyreactivity (PSR sort gate) associated with QVQLVESGGGLVQAGGSLRLSCAASGSTFYNYAMGWYRQAPGKERELVASISSSGGSTYADSVKGRFTISRDNAKNTVYLQMNSLKPEDTAVYYCARVRWIVPWYGPTDDYWGQGTQVTVSS
OUTPUT: low polyreactivity

INPUT: Request the reported polyreactivity (PSR sort gate) associated with QVQLVESGGGLVQAGGSLRLSCAASGNTFAGNAMGWYRQATGKERELVAAISWSGTRTYYADSVKGRFTISRDNAKNTVYLQMNSLKPEDTAVYYCAKLSTNKEYYWGQGTQVTVSS
OUTPUT: high polyreactivity
